Assay: log P by reversed-phase HPLC (EEC Directive 79/831 Annex V.A8)
Type: physicochemical
Conditions: reversed-phase C 18, 40° C., 0.1% aqueous formic acid and acetonitrile gradient
Recorded measurements of log PHCOOH, one per entry
Keep the answer to the number alone.

Query :: Look up log PHCOOH: COc1ccc(Nc2nccc(-c3ccnc(N(C)C)c3)n2)cn1
Result :: 1.24

----------
The reader will find reported log PHCOOH values listed item by item below.
Assay: log P by reversed-phase HPLC (EEC Directive 79/831 Annex V.A8)
Assay type: physicochemical
Conditions: reversed-phase C 18, 40° C., 0.1% aqueous formic acid and acetonitrile gradient
Answer with a bare number; do not write a unit.

Clc1cc(Nc2nccc(-c3ccnc(NC4CCCCC4)c3)n2)ccn1 : 1.64
CCC(CC)Nc1cc(-c2ccnc(Nc3cccc(NC(CC)CC)n3)n2)ccn1 : 1.47
c1cc(NCC2CC2)nc(Nc2nccc(-c3ccnc(NCC4CC4)c3)n2)c1 : 0.96
CC(CN(C)C)Nc1cc(-c2ccnc(Nc3cccc(Cl)n3)n2)ccn1 (stereo not drawn) : 1.42
c1cc(Nc2nccc(-c3ccnc(NC4CCCC4)c3)n2)nc(NC2CCCC2)c1 : 1.23
c1cc(Nc2nccc(-c3ccnc(NCC4CC4)c3)n2)cc(NCC2CC2)n1 : 0.97
CCCCCNc1cc(Nc2nccc(-c3ccnc(NCCCCC)c3)n2)ccn1 : 1.57
Clc1cccc(Nc2nccc(-c3ccnc(NCC4CCCO4)c3)n2)n1 (stereo not drawn) : 1.64

Query :: Report log PHCOOH for CCC(C)Nc1cc(-c2ccnc(Nc3cccc(NC(C)CC)n3)n2)ccn1 (stereo not drawn) please.
Result :: 1.23

Query :: Another: CC(C)C(C)Nc1cc(-c2ccnc(Nc3cccc(Cl)n3)n2)ccn1 (stereo not drawn)
Result :: 2.15

Query :: Proceed to CCC(C)Nc1cc(-c2ccnc(Nc3ccc(OC)nc3)n2)ccn1 (stereo not drawn)
Result :: 1.48

Query :: Another compound to check: CCC(CO)Nc1cc(-c2ccnc(Nc3ccc(OC)nc3)n2)ccn1 (stereo not drawn)
Result :: 1.35

Query :: # repeat for CCC(CC)Nc1cc(-c2ccnc(Nc3ccnc(Cl)c3)n2)ccn1
Result :: 1.64

Query :: What do you get for COc1ccc(Nc2nccc(-c3ccnc(NCC(C)C)c3)n2)cn1 ?
Result :: 1.42

Query :: Try this compound too: c1cc(NCC2CCCO2)nc(Nc2nccc(-c3ccnc(NCC4CCCO4)c3)n2)c1 (stereo not drawn)
Result :: 0.86

Query :: And what about the compound c1cc(Nc2nccc(-c3ccnc(NC4CCC4)c3)n2)nc(NC2CCC2)c1 ?
Result :: 1.12

Query :: Similarly, CCC(CC)Nc1cc(-c2ccnc(Nc3cccc(Cl)n3)n2)ccn1 ?
Result :: 2.09

Query :: For c1cc(Nc2nccc(-c3ccnc(NC4CCCC4)c3)n2)cc(NC2CCCC2)n1 then?
Result :: 1.22
